System: HT-29
Assay: Cytotoxicity against human HT-29 cells after 72 hrs by MTT assay
Assay type: functional
Settings: HT-29, 72 h

>  <Item smiles>
Cc1ccc(OC(=O)Nc2ccc([Se]C#N)cc2)cc1

>  <GI50>
8.8 µM

$$$$
>  <Item smiles>
N#C[Se]c1ccc(NC(=O)Oc2ccc(F)cc2)cc1

>  <GI50>
8.8 µM

$$$$
>  <Item smiles>
N#C[Se]c1ccc(NC(=O)OCC2c3ccccc3-c3ccccc32)cc1

>  <GI50>
15.5 µM

$$$$
>  <Item smiles>
N#C[Se]c1ccc(NC(=O)Oc2ccc(Cl)cc2)cc1

>  <GI50>
11.8 µM

$$$$
>  <Item smiles>
N#C[Se]c1ccc(NC(=O)OCc2ccc([N+](=O)[O-])cc2)cc1

>  <GI50>
22.4 µM

$$$$
>  <Item smiles>
CCCCOC(=O)Nc1ccc([Se][Se]c2ccc(NC(=O)OCCCC)cc2)cc1

>  <GI50>
27.6 µM

$$$$

###

Assay: Cytotoxicity against human 184B5 cells after 72 hrs by MTT assay
Type: cell-based
Conditions: 184b5, 72 h
As shown below, each of these compounds has a reported TGI value.

>  <Item smiles>
N#C[Se]c1ccc(NC(=O)OCC2=Cc3ccccc3S2(=O)=O)cc1

>  <TGI [µM]>
19.2

$$$$
>  <Item smiles>
O=C(Nc1ccc([Se][Se]c2ccc(NC(=O)Oc3ccccc3)cc2)cc1)Oc1ccccc1

>  <TGI [µM]>
9

$$$$
>  <Item smiles>
Cc1ccc(OC(=O)Nc2ccc([Se][Se]c3ccc(NC(=O)Oc4ccc(C)cc4)cc3)cc2)cc1

>  <TGI [µM]>
7.6

$$$$
>  <Item smiles>
O=C(Nc1ccc([Se][Se]c2ccc(NC(=O)Oc3ccc(F)cc3)cc2)cc1)Oc1ccc(F)cc1

>  <TGI [µM]>
8.6

$$$$
>  <Item smiles>
O=C(Nc1ccc([Se][Se]c2ccc(NC(=O)OCC3c4ccccc4-c4ccccc43)cc2)cc1)OCC1c2ccccc2-c2ccccc21

>  <TGI [µM]>
19.7

$$$$
>  <Item smiles>
CCCCCCOC(=O)Nc1ccc([Se][Se]c2ccc(NC(=O)OCCCCCC)cc2)cc1

>  <TGI [µM]>
9.8

$$$$
>  <Item smiles>
O=C(Nc1ccc([Se][Se]c2ccc(NC(=O)Oc3ccc(Cl)cc3)cc2)cc1)Oc1ccc(Cl)cc1

>  <TGI [µM]>
8.9

$$$$
>  <Item smiles>
CCCCCCOC(=O)Nc1ccc([Se]C#N)cc1

>  <TGI [µM]>
20

$$$$
>  <Item smiles>
CCCOC(=O)Nc1ccc([Se]C#N)cc1

>  <TGI [µM]>
9.1

$$$$

###

System: CCRF-CEM
Assay: Cytotoxicity against human CCRF-CEM cells after 72 hrs by MTT assay
Format: functional
As shown below, each of these compounds has a reported GI50 value.
Experimental readout: GI50

>  <Item smiles>
Cc1ccc(OC(=O)Nc2ccc([Se][Se]c3ccc(NC(=O)Oc4ccc(C)cc4)cc3)cc2)cc1

>  <System>
CCRF-CEM

>  <Measurement>
21.4 µM

$$$$
>  <Item smiles>
CCCCCCOC(=O)Nc1ccc([Se]C#N)cc1

>  <System>
CCRF-CEM

>  <Measurement>
19.7 µM

$$$$
>  <Item smiles>
N#C[Se]c1ccc(NC(=O)OCC2=Cc3ccccc3S2(=O)=O)cc1

>  <System>
CCRF-CEM

>  <Measurement>
3.3 µM

$$$$
>  <Item smiles>
O=C(Nc1ccc([Se][Se]c2ccc(NC(=O)Oc3ccc(Cl)cc3)cc2)cc1)Oc1ccc(Cl)cc1

>  <System>
CCRF-CEM

>  <Measurement>
10.8 µM

$$$$
>  <Item smiles>
O=C(Nc1ccc([Se][Se]c2ccc(NC(=O)OCC3=Cc4ccccc4S3(=O)=O)cc2)cc1)OCC1=Cc2ccccc2S1(=O)=O

>  <System>
CCRF-CEM

>  <Measurement>
2.3 µM

$$$$
>  <Item smiles>
N#C[Se]c1ccc(NC(=O)OCc2ccccc2)cc1

>  <System>
CCRF-CEM

>  <Measurement>
23.2 µM

$$$$
>  <Item smiles>
CCCCOC(=O)Nc1ccc([Se]C#N)cc1

>  <System>
CCRF-CEM

>  <Measurement>
6.5 µM

$$$$
>  <Item smiles>
CCCOC(=O)Nc1ccc([Se]C#N)cc1

>  <System>
CCRF-CEM

>  <Measurement>
9.3 µM

$$$$
>  <Item smiles>
CCOC(=O)Nc1ccc([Se]C#N)cc1

>  <System>
CCRF-CEM

>  <Measurement>
9.8 µM

$$$$
>  <Item smiles>
N#C[Se]c1ccc(NC(=O)Oc2ccc(F)cc2)cc1

>  <System>
CCRF-CEM

>  <Measurement>
12.6 µM

$$$$
>  <Item smiles>
CC(C)COC(=O)Nc1ccc([Se][Se]c2ccc(NC(=O)OCC(C)C)cc2)cc1

>  <System>
CCRF-CEM

>  <Measurement>
9.8 µM

$$$$
>  <Item smiles>
C=CCOC(=O)Nc1ccc([Se][Se]c2ccc(NC(=O)OCC=C)cc2)cc1

>  <System>
CCRF-CEM

>  <Measurement>
4.6 µM

$$$$

###

As shown below, each of these compounds has a reported LC50 value.
Experiment: Cytotoxicity against human 184B5 cells after 72 hrs by MTT assay
Format: cell-based
Details: 184b5, 72 h

>  <Item smiles>
N#C[Se]c1ccc(NC(=O)OCC2=Cc3ccccc3S2(=O)=O)cc1

>  <LC50, µM>
59.7

$$$$
>  <Item smiles>
CCOC(=O)Nc1ccc([Se]C#N)cc1

>  <LC50, µM>
59

$$$$
>  <Item smiles>
CCCCCCOC(=O)Nc1ccc([Se]C#N)cc1

>  <LC50, µM>
60.1

$$$$
>  <Item smiles>
C=CCOC(=O)Nc1ccc([Se][Se]c2ccc(NC(=O)OCC=C)cc2)cc1

>  <LC50, µM>
60.4

$$$$
>  <Item smiles>
CCOC(=O)Nc1ccc([Se][Se]c2ccc(NC(=O)OCC)cc2)cc1

>  <LC50, µM>
58.7

$$$$

###

As shown below, each of these molecules has a reported LC50 value.
Test: Cytotoxicity against human BEAS2B cells after 72 hrs by MTT assay
Assay type: cell-based, BEAS-2B
Settings: beas-2b, 72 h
Experimental readout: LC50

>  <Item smiles>
CC(C)COC(=O)Nc1ccc([Se]C#N)cc1

>  <Experimental readout>
LC50

>  <Measurement>
72.1 µM

$$$$
>  <Item smiles>
N#C[Se]c1ccc(NC(=O)Oc2ccc(Cl)cc2)cc1

>  <Experimental readout>
LC50

>  <Measurement>
68.7 µM

$$$$
>  <Item smiles>
Cc1ccc(OC(=O)Nc2ccc([Se][Se]c3ccc(NC(=O)Oc4ccc(C)cc4)cc3)cc2)cc1

>  <Experimental readout>
LC50

>  <Measurement>
61.8 µM

$$$$
>  <Item smiles>
C=CCOC(=O)Nc1ccc([Se][Se]c2ccc(NC(=O)OCC=C)cc2)cc1

>  <Experimental readout>
LC50

>  <Measurement>
71.4 µM

$$$$
>  <Item smiles>
Cc1ccc(OC(=O)Nc2ccc([Se]C#N)cc2)cc1

>  <Experimental readout>
LC50

>  <Measurement>
58.3 µM

$$$$

###

System: MCF7
Assay: Cytotoxicity against human MCF7 cells after 72 hrs by MTT assay
Type: functional
Settings: MCF7, 72 h
As shown below, each of these compounds has a reported TGI value.

>  <Compound>
CCOC(=O)Nc1ccc([Se]C#N)cc1

>  <System>
MCF7

>  <Measurement units>
µM

>  <Readout relation>
=

>  <TGI>
36.7

$$$$
>  <Compound>
COc1cc([C@@H]2c3cc4c(cc3[C@@H](O[C@@H]3O[C@@H]5CO[C@@H](C)O[C@H]5[C@H](O)[C@H]3O)[C@H]3COC(=O)[C@H]23)OCO4)cc(OC)c1O [ETOPOSIDE]

>  <System>
MCF7

>  <Measurement units>
µM

>  <Readout relation>
>

>  <TGI>
100

$$$$
>  <Compound>
O=C(Nc1ccc([Se][Se]c2ccc(NC(=O)OCC3c4ccccc4-c4ccccc43)cc2)cc1)OCC1c2ccccc2-c2ccccc21

>  <System>
MCF7

>  <Measurement units>
µM

>  <Readout relation>
=

>  <TGI>
52.9

$$$$
>  <Compound>
CCCOC(=O)Nc1ccc([Se][Se]c2ccc(NC(=O)OCCC)cc2)cc1

>  <System>
MCF7

>  <Measurement units>
µM

>  <Readout relation>
=

>  <TGI>
55.8

$$$$
>  <Compound>
C=CCOC(=O)Nc1ccc([Se]C#N)cc1

>  <System>
MCF7

>  <Measurement units>
µM

>  <Readout relation>
=

>  <TGI>
43.1

$$$$
>  <Compound>
O=C(Nc1ccc([Se][Se]c2ccc(NC(=O)Oc3ccccc3)cc2)cc1)Oc1ccccc1

>  <System>
MCF7

>  <Measurement units>
µM

>  <Readout relation>
=

>  <TGI>
36.7

$$$$
>  <Compound>
CCCCOC(=O)Nc1ccc([Se][Se]c2ccc(NC(=O)OCCCC)cc2)cc1

>  <System>
MCF7

>  <Measurement units>
µM

>  <Readout relation>
=

>  <TGI>
46.3

$$$$
>  <Compound>
O=C(Nc1ccc([Se][Se]c2ccc(NC(=O)OCC3=Cc4ccccc4S3(=O)=O)cc2)cc1)OCC1=Cc2ccccc2S1(=O)=O

>  <System>
MCF7

>  <Measurement units>
µM

>  <Readout relation>
=

>  <TGI>
5.7

$$$$
>  <Compound>
CCCCCCOC(=O)Nc1ccc([Se]C#N)cc1

>  <System>
MCF7

>  <Measurement units>
µM

>  <Readout relation>
=

>  <TGI>
30.5

$$$$
>  <Compound>
O=C(Nc1ccc([Se][Se]c2ccc(NC(=O)Oc3ccc(F)cc3)cc2)cc1)Oc1ccc(F)cc1

>  <System>
MCF7

>  <Measurement units>
µM

>  <Readout relation>
=

>  <TGI>
33.7

$$$$
>  <Compound>
CCCCCCOC(=O)Nc1ccc([Se][Se]c2ccc(NC(=O)OCCCCCC)cc2)cc1

>  <System>
MCF7

>  <Measurement units>
µM

>  <Readout relation>
=

>  <TGI>
52.9

$$$$
>  <Compound>
O=C(Nc1ccc([Se][Se]c2ccc(NC(=O)Oc3ccc(Cl)cc3)cc2)cc1)Oc1ccc(Cl)cc1

>  <System>
MCF7

>  <Measurement units>
µM

>  <Readout relation>
=

>  <TGI>
46

$$$$
>  <Compound>
O=C(Nc1ccc([Se][Se]c2ccc(NC(=O)OCc3ccc([N+](=O)[O-])cc3)cc2)cc1)OCc1ccc([N+](=O)[O-])cc1

>  <System>
MCF7

>  <Measurement units>
µM

>  <Readout relation>
=

>  <TGI>
52.8

$$$$
>  <Compound>
Cc1ccc(OC(=O)Nc2ccc([Se]C#N)cc2)cc1

>  <System>
MCF7

>  <Measurement units>
µM

>  <Readout relation>
=

>  <TGI>
39.9

$$$$
>  <Compound>
N#C[Se]c1ccc(NC(=O)OCC2c3ccccc3-c3ccccc32)cc1

>  <System>
MCF7

>  <Measurement units>
µM

>  <Readout relation>
=

>  <TGI>
34.6

$$$$
>  <Compound>
N#C[Se]c1ccc(NC(=O)Oc2ccccc2)cc1

>  <System>
MCF7

>  <Measurement units>
µM

>  <Readout relation>
=

>  <TGI>
35.9

$$$$
>  <Compound>
N#C[Se]c1ccc(NC(=O)Oc2ccc(F)cc2)cc1

>  <System>
MCF7

>  <Measurement units>
µM

>  <Readout relation>
=

>  <TGI>
33.3

$$$$
>  <Compound>
C=CCOC(=O)Nc1ccc([Se][Se]c2ccc(NC(=O)OCC=C)cc2)cc1

>  <System>
MCF7

>  <Measurement units>
µM

>  <Readout relation>
=

>  <TGI>
47.2

$$$$
>  <Compound>
O=C(Nc1ccc([Se][Se]c2ccc(NC(=O)OCc3ccccc3)cc2)cc1)OCc1ccccc1

>  <System>
MCF7

>  <Measurement units>
µM

>  <Readout relation>
=

>  <TGI>
38.6

$$$$
>  <Compound>
CCCCOC(=O)Nc1ccc([Se]C#N)cc1

>  <System>
MCF7

>  <Measurement units>
µM

>  <Readout relation>
=

>  <TGI>
20.2

$$$$
>  <Compound>
COc1ccc(OC(=O)Nc2ccc([Se][Se]c3ccc(NC(=O)Oc4ccc(OC)cc4)cc3)cc2)cc1

>  <System>
MCF7

>  <Measurement units>
µM

>  <Readout relation>
=

>  <TGI>
42.8

$$$$
>  <Compound>
COc1ccc(OC(=O)Nc2ccc([Se]C#N)cc2)cc1

>  <System>
MCF7

>  <Measurement units>
µM

>  <Readout relation>
=

>  <TGI>
48.2

$$$$
